# Test system: velvetleaf
# method notes: Test A preemergence
# Format: in vivo, Abutilon theophrasti
# condition label: preemergence, 125 g ai/ha; visual injury, 0 to 100 scale, approx. 10 days
measured endpoint: Velvetleaf plant response rating

Past entries and their recorded results:
Velvetleaf plant response rating value, target or system velvetleaf, for CCCc1cc(C(=O)NCC(F)(F)F)nn1Cc1ccnc(C(F)(F)F)c1 : 100

Velvetleaf plant response rating value, target or system velvetleaf, for CCc1cc(C(=O)NCC(F)(F)F)nn1Cc1ccnc(C(F)(F)F)c1 : 100

Velvetleaf plant response rating value, target or system velvetleaf, for CCCc1cc(C(=O)NCC)nn1Cc1cc(C(F)(F)F)nn1C : 100

Quick one: give me Velvetleaf plant response rating for each item below, same order please.
1. CCc1cc(C(=O)NCC(F)(F)F)nn1Oc1cccc(C(F)(F)F)n1
2. CCCc1cc(C(=O)NCC(F)(F)F)nn1Oc1ccnc(C(F)(F)F)c1
3. Cc1cc(C(=O)NC2CC2)nn1Cc1cc(F)cc(C(F)(F)F)c1
4. O=C(NCC(F)(F)F)c1cc(CCCl)n(Cc2ccnc(C(F)(F)F)c2)n1

(A)
[0, 0, 0, 50]

Quick one: give me Velvetleaf plant response rating for each item below, same order please.
1. Cc1cc(C(=O)NCC(F)(F)C(F)(F)F)nn1Cc1cccc(C(F)(F)F)c1
2. CCOc1cc(C(=O)NCC(F)(F)F)nn1Cc1ccnc(C(F)(F)F)c1
3. CCCNC(=O)c1cc(C)n(Oc2ccnc(C(F)(F)F)c2)n1
4. CNC(=O)c1cc(C)n(Cc2cccc(OC(F)(F)F)c2)n1

(A)
[0, 100, 0, 0]

###

# Test system: wheat
# method notes: Test A preemergence
# Format: in vivo, Triticum aestivum
# condition label: preemergence, 500 g ai/ha, visual injury after approx. 10 days, 0 to 100 scale (0 no effect, 100 complete control)
Lab note: compare Wheat plant response rating with 90, writing True if less and False if equal or more.

(Q) Consider the molecule CCc1cc(C(=O)NCC2CC2)nn1Cc1ccnc(C(F)(F)F)c1 . Is its Wheat plant response rating strictly less than 90?
(A) False

Continuing:
(Q) Consider the molecule CCc1cc(-c2ccc(F)cc2)nn1Cc1ccnc(C(F)(F)F)c1 . Is its Wheat plant response rating strictly less than 90?
(A) True

(Q) Consider the molecule CCCNC(=O)c1cc(CCCl)n(Cc2ccnc(C(F)(F)F)c2)n1 . Is its Wheat plant response rating strictly less than 90?
(A) False

(Q) Consider the molecule CCc1cc(C(=O)NCC(F)(F)F)nn1Cc1nnc(C(F)(F)F)o1 . Is its Wheat plant response rating strictly less than 90?
(A) True

(Q) Consider the molecule CCc1cc(C(=O)NCC(F)(F)F)nn1Cc1cc(C(F)(F)F)nn1CC . Is its Wheat plant response rating strictly less than 90?
(A) True

(Q) Consider the molecule CCc1cc(C(=O)NC2CC2)nn1Oc1ccnc(C(F)(F)F)c1 . Is its Wheat plant response rating strictly less than 90?
(A) True

###

# Test system: morningglory
# method notes: Test C postemergence
# Type: in vivo, Ipomoea coccinea
# condition label: postemergence; 125 g ai/ha; scale 0 to 100, 0 no effect, 100 complete control
Lab note: compare Plant response rating, Morningglory with 90, writing satisfied if less and not satisfied if equal or more.

(Q) Consider the compound CCNC(=O)c1cc(CC)n(Cc2ccnc(OC(F)F)c2)n1 . Is its Plant response rating, Morningglory strictly less than 90?
(A) satisfied

Continuing:
(Q) Consider the compound CCCc1cc(C(=O)NCC)nn1Cc1ccnc(C(F)(F)F)c1 . Is its Plant response rating, Morningglory strictly less than 90?
(A) satisfied

(Q) Consider the compound CCCNC(=O)c1cc(CCC)n(Cc2cc(C(F)(F)F)nn2C)n1 . Is its Plant response rating, Morningglory strictly less than 90?
(A) not satisfied

(Q) Consider the compound CCc1cc(C(=O)NCC(F)(F)F)nn1Cc1cc(OC(F)F)nn1C . Is its Plant response rating, Morningglory strictly less than 90?
(A) satisfied

(Q) Consider the compound CCOc1cc(C(=O)NC(C)C)nn1Cc1ccnc(C(F)(F)F)c1 . Is its Plant response rating, Morningglory strictly less than 90?
(A) not satisfied
